# credit: PubChem BioAssay (NCATS)

System: Tov112D
protocol.summary: Primary qHTS to identify gynecologic anti-cancer compounds using libraries of approved drugs and bioactive compounds (AID 1345084); note: nearly all actives have a fitted effect of over 55% in size
condition.info: Gynecologic cancer cell panel viability, ATPlite luminescence, 48 h; series mostly up to 57.5 µM
Inconclusive results are not listed. Calls of active or inactive are those of the source. Calls come from the whole dose curve; as a rule, active = well fitted cell-killing curve with a large enough effect; inconclusive = small, poorly fitted or top-dose-only effect, or effect the other way; inactive = flat fitted curve, though single readings scatter.
Outcome codes: yes (1) (active), no (0) (inactive)

| compound | discrete.label |
| --- | --- |
| O=C1Cc2c([nH]c3ccc(Br)cc23)-c2ncccc2N1 | no (0) |
| COc1ccccc1S(=O)(=O)Nc1ccc2c(c1)CN(C)C(=O)N2 | no (0) |
| CC1=C(C(=O)Nc2cc(Cl)ccc2Cl)C(c2ccco2)C2=C(CCCC2=O)N1 (centres undefined) | no (0) |
| CC(C)(C)Oc1ccc(OCC2Cc3ccccc3CN2C(=O)c2cccc3ccccc23)cc1 (centres undefined) | no (0) |
| CC1(C)CCCC2(C)C1C(=O)C=C(C(=O)O)C2(O)C(=O)O (centres undefined) | no (0) |
| CC(C)(C)c1ccc(C(=O)Nc2cn3cc(-n4ccnc4)ccc3n2)cc1 | no (0) |
| Nc1nc2c(ncn2C2OC3COP(=O)(O)OC3C2O)c(=O)[nH]1 (centres undefined) | no (0) |
| O=C(Nc1cccnn1)N1CCN(c2nccc(-c3ccc(F)c(F)c3)n2)CC1 | no (0) |
| COc1ccnc(CS(=O)c2nc3cc(OC(F)F)ccc3[nH]2)c1OC (centres undefined) | no (0) |
| CC(C)=CCC/C(C)=C/COCC1OC(n2ccc(=O)[nH]c2=O)C(O)C1O (centres undefined) | no (0) |
| C[C@H]1CO[C@@H]2Cn3cc(C(=O)NCc4ccc(F)cc4F)c(=O)c(O)c3C(=O)N12 | no (0) |
| O=C(Nc1ccc(-c2ccc(Cl)c(Cl)c2)cc1)C1=C(O)c2ccccc2S(=O)(=O)N1 | no (0) |
| N#Cc1cc(-c2ccnc(Nc3ccc(N4CCOCC4)cc3)n2)ccc1OC1CCOCC1 | no (0) |
| CC1=C(c2ccc(NC(=O)c3c(F)cccc3F)cc2)CN(c2nccs2)CC1 | no (0) |
| CC[N+]1(C/C2=C/CCCCCC2)CCC(NC(=O)C2c3cc(Cl)ccc3Oc3ccc(Cl)cc32)CC1 (centres undefined) | no (0) |
| COC(CCc1ccc(O)cc1)CC(=O)CCc1ccc(O)cc1 (centres undefined) | no (0) |
| COc1cc2ncnc(Nc3cccc(I)c3)c2cc1OC | no (0) |
| CC(C)(CO)c1cc2cc(NC(=O)C3(c4ccc5c(c4)OC(F)(F)O5)CC3)c(F)cc2n1CC(O)CO (centres undefined) | no (0) |
| CO[C@@H]1CC(OC2CCC3(C)C(CCC45CCC(C6=CC(=O)OC6)C(C)(CCC43)C5=O)C2)O[C@H](C)[C@@H]1O[C@@H]1O[C@H](CO[C@@H]2O[C@H](CO)[C@@H](O)[C@H](O)[C@H]2O)[C@@H](O)[C@H](O)[C@H]1O (some centres undefined) | yes (1) |
